biological target: HLA-A*02:01 (Homo sapiens, UniProt P04439, D140Y/D185E/D98H/E176V/E277Q/G131W/G231S/I119V/I121R/I166T/I218V/L300P/L318F/N151K/N90K/P208A/P217A/Q86G/Q94H/R138H/R169H/T345S); assay: MHC binding assay (UV-ligand exchange, β2m ELISA, peptide exchange yield); conditions: binding to HLA-A*02:01
measurement_type: Peptide Exchange (MHC class I binding score, peptide exchange yield)

Solved entries:
115 (LLFDKLYLL; listed as Homo sapiens) [compound 115]: “+++” (>50 = +++)
24 (AMAGDVVYA; listed as Homo sapiens) [compound 24]: “+++” (>50 = +++)
171 (TLVPPAALISI; listed as Homo sapiens) [compound 171]: “+++” (>50 = +++)
369 (RLLDLENSLLGL; listed as Homo sapiens) [compound 369]: “+++” (>50 = +++)
272 (VLDELPPLI; listed as Homo sapiens) [compound 272]: “+++” (>50 = +++)
188 (VMGDIPAAV; listed as Homo sapiens) [compound 188]: “++” (>20% = ++)
316 (MLLEHGITL; listed as Homo sapiens) [compound 316]: “+++” (>50 = +++)
10 (FVYGESVEL; listed as Homo sapiens) [compound 10]: “+++” (>50 = +++)

Please state Peptide Exchange (MHC class I binding score, peptide exchange yield) for every substance in the list that follows.
1. 337 (YMYEKESEL; listed as Homo sapiens) [compound 337]
2. 182 (VLLSVPGPPV; listed as Homo sapiens) [compound 182]
3. 234 (GLDDAEYAL; listed as Homo sapiens) [compound 234]
4. 297 (FLVEPQEDTRL; listed as Homo sapiens) [compound 297]

“++” (>20% = ++)
“+++” (>50 = +++)
“++” (>20% = ++)
“+++” (>50 = +++)

Kindly give each listed record's Peptide Exchange (MHC class I binding score, peptide exchange yield).
1. 133 (YLLSGDISEA; listed as Homo sapiens) [compound 133]
2. 284 (LLSAAEPVPA; listed as Homo sapiens) [compound 284]
3. 59 (FVFGDENGTVSL; listed as Homo sapiens) [compound 59]
4. 331 (VLWELAHLPTL; listed as Homo sapiens) [compound 331]
5. 381 (YLLEENKIKL; listed as Homo sapiens) [compound 381]

“+++” (>50 = +++)
“++” (>20% = ++)
“+++” (>50 = +++)
“+++” (>50 = +++)
“+++” (>50 = +++)

* * *

target: HLA-A*02:01 (Homo sapiens, UniProt P04439, D140Y/D185E/D98H/E176V/E277Q/G131W/G231S/I119V/I121R/I166T/I218V/L300P/L318F/N151K/N90K/P208A/P217A/Q86G/Q94H/R138H/R169H/T345S); assay: MHC binding assay (UV-ligand exchange, β2m ELISA, peptide exchange yield); details: binding to HLA-A*02:01
measurement_type: Peptide Exchange (MHC class I binding score, peptide exchange yield)

Solved cases (5 shown):
192 (YIQEYLTLL; listed as Homo sapiens) [compound 192]: “+++” (>50 = +++)
37 (FIMEGGAMVL; listed as Homo sapiens) [compound 37]: “++++” (>75% = ++++)
260 (SLDDVEGMSV; listed as Homo sapiens) [compound 260]: “+++” (>50 = +++)
12 (ALGEDEITL; listed as Homo sapiens) [compound 12]: “+++” (>50 = +++)
121 (RLYEITIEV; listed as Homo sapiens) [compound 121]: “++++” (>75% = ++++)

Could I get Peptide Exchange (MHC class I binding score, peptide exchange yield) for every one of these entries?
1. 11 (ALFTFSPLTV; listed as Homo sapiens) [compound 11]
2. 303 (ILSQPTPSL; listed as Homo sapiens) [compound 303]

“+++” (>50 = +++)
“+++” (>50 = +++)

Recall and state the measured Peptide Exchange (MHC class I binding score, peptide exchange yield) for 227 (FLAEASVMTQL; listed as Homo sapiens) [compound 227] .
“+++” (>50 = +++)

* * *

biological target: HLA-A*02:01 (Homo sapiens, UniProt P04439, D140Y/D185E/D98H/E176V/E277Q/G131W/G231S/I119V/I121R/I166T/I218V/L300P/L318F/N151K/N90K/P208A/P217A/Q86G/Q94H/R138H/R169H/T345S); test: MHC binding assay (UV-ligand exchange, β2m ELISA, peptide exchange yield); details: binding to HLA-A*02:01
measurement_type: Peptide Exchange (MHC class I binding score, peptide exchange yield)

243 (ILPTLEKELFL; listed as Homo sapiens) [compound 243]: “+++” (>50 = +++)
220 (ALPEILFAKV; listed as Homo sapiens) [compound 220]: “+++” (>50 = +++)
119 (VLPAEFFEV; listed as Homo sapiens) [compound 119]: “+++” (>50 = +++)

* * *

target: HLA-A*02:01 (Homo sapiens, UniProt P04439, D140Y/D185E/D98H/E176V/E277Q/G131W/G231S/I119V/I121R/I166T/I218V/L300P/L318F/N151K/N90K/P208A/P217A/Q86G/Q94H/R138H/R169H/T345S); test: MHC binding assay (UV-ligand exchange, β2m ELISA, peptide exchange yield); details: binding to HLA-A*02:01
measurement_type: Peptide Exchange (MHC class I binding score, peptide exchange yield)

161 (SMDDGMINV; listed as Homo sapiens) [compound 161]: “+++” (>50 = +++)
295 (ALLQKLQQL; listed as Homo sapiens) [compound 295]: “+++” (>50 = +++)
159 (SLQEEKLIYV; listed as Homo sapiens) [compound 159]: “+++” (>50 = +++)
268 (TLLQVFHLL; listed as Homo sapiens) [compound 268]: “+++” (>50 = +++)
19 (QVMEKLAAV; listed as Homo sapiens) [compound 19]: “+++” (>50 = +++)
66 (SLAGGLDDMKA; listed as Homo sapiens) [compound 66]: “+++” (>50 = +++)
169 (TLLLGLTEV; listed as Homo sapiens) [compound 169]: “+++” (>50 = +++)
145 (SALDTITTV; listed as Homo sapiens) [compound 145]: “+++” (>50 = +++)
123 (LLLAEAELLTL; listed as Homo sapiens) [compound 123]: “++” (>20% = ++)
287 (FLWEEKFNSL; listed as Homo sapiens) [compound 287]: “++++” (>75% = ++++)

# batch: return Peptide Exchange (MHC class I binding score, peptide exchange yield) for each of the 4 substances below
1. 89 (ILDFGTFQL; listed as Homo sapiens) [compound 89]
2. 314 (LMKDCEAEV; listed as Homo sapiens) [compound 314]
3. 207 (IIADLDTTIMFA; listed as Homo sapiens) [compound 207]
4. 26 (AVLLVLPLV; listed as Homo sapiens) [compound 26]

1: “+++” (>50 = +++); 2: “+++” (>50 = +++); 3: “+++” (>50 = +++); 4: “+++” (>50 = +++)

Batch request: Peptide Exchange (MHC class I binding score, peptide exchange yield) per item, same order as input.
1. 211 (LIDVKPLGV; listed as Homo sapiens) [compound 211]
2. 156 (SLNIGDVQL; listed as Homo sapiens) [compound 156]

1. “+++” (>50 = +++)
2. “+++” (>50 = +++)

* * *

target: HLA-A*02:01 (Homo sapiens, UniProt P04439, D140Y/D185E/D98H/E176V/E277Q/G131W/G231S/I119V/I121R/I166T/I218V/L300P/L318F/N151K/N90K/P208A/P217A/Q86G/Q94H/R138H/R169H/T345S); test: MHC binding assay (UV-ligand exchange, β2m ELISA, peptide exchange yield); conditions: binding to HLA-A*02:01
measurement_type: Peptide Exchange (MHC class I binding score, peptide exchange yield)

49 (FLTDLFAQL; listed as Homo sapiens) [compound 49]: “++++” (>75% = ++++)
199 (YLVELSSLL; listed as Homo sapiens) [compound 199]: “++++” (>75% = ++++)
92 (ILEPLNPLL; listed as Homo sapiens) [compound 92]: “+++” (>50 = +++)
29 (AVLQAVTAV; listed as Homo sapiens) [compound 29]: “+++” (>50 = +++)

* * *

molecular target: HLA-A*02:01 (Homo sapiens, UniProt P04439, D140Y/D185E/D98H/E176V/E277Q/G131W/G231S/I119V/I121R/I166T/I218V/L300P/L318F/N151K/N90K/P208A/P217A/Q86G/Q94H/R138H/R169H/T345S); assay: MHC binding assay (UV-ligand exchange, β2m ELISA, peptide exchange yield); conditions: binding to HLA-A*02:01
measurement_type: Peptide Exchange (MHC class I binding score, peptide exchange yield)

Answered cases to consult:
231 (FLYIRQLAI; listed as Homo sapiens) [compound 231]: “+++” (>50 = +++)
165 (TLDDDLDTV; listed as Homo sapiens) [compound 165]: “++” (>20% = ++)
103 (KLGGTPAPA; listed as Homo sapiens) [compound 103]: “++” (>20% = ++)
117 (LLILENILL; listed as Homo sapiens) [compound 117]: “+++” (>50 = +++)
267 (TLLDWQDSL; listed as Homo sapiens) [compound 267]: “+++” (>50 = +++)

# per-item lookup of Peptide Exchange (MHC class I binding score, peptide exchange yield); items listed below
1. 384 (YMIGSEVGNYL; listed as Homo sapiens) [compound 384]
2. 43 (FLLGPEALSFA; listed as Homo sapiens) [compound 43]
3. 363 (ITTEVVNELYV; listed as Homo sapiens) [compound 363]

["“++++” (>75% = ++++)", "“++++” (>75% = ++++)", "“+++” (>50 = +++)"]

Please give Peptide Exchange (MHC class I binding score, peptide exchange yield) for each item listed below.
1. 382 (YLLPLLQRL; listed as Homo sapiens) [compound 382]
2. 239 (ILAGEMLSV; listed as Homo sapiens) [compound 239]
3. 232 (FMHQIIDQV; listed as Homo sapiens) [compound 232]

["“++++” (>75% = ++++)", "“+++” (>50 = +++)", "“++++” (>75% = ++++)"]

Can you give me Peptide Exchange (MHC class I binding score, peptide exchange yield) for all of these, one by one?
1. 305 (LLFPQIEGIKI; listed as Homo sapiens) [compound 305]
2. 152 (SLIRILQTI; listed as Homo sapiens) [compound 152]
3. 376 (VLYNQRVEEI; listed as Homo sapiens) [compound 376]

["“+++” (>50 = +++)", "“+++” (>50 = +++)", "“+++” (>50 = +++)"]

Where these numbers come from: patent US11260115B1
